- tgt: Sialic acid-binding Ig-like lectin 9 (Homo sapiens) (UniProt Q9Y336)
- Sequence (Q9Y336 whole entry): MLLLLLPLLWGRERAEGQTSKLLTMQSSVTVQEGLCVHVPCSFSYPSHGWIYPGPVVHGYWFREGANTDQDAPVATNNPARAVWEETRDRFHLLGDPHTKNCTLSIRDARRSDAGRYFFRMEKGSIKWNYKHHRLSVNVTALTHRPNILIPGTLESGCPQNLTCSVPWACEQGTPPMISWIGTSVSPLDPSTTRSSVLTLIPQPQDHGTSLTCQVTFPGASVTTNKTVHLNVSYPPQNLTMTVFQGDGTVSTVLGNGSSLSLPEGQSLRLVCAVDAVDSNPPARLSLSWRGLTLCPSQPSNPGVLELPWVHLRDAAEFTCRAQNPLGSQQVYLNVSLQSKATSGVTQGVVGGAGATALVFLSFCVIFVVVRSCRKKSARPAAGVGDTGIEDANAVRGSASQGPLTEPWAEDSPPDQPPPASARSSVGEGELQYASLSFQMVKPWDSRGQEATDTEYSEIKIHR
- experiment: Hs-Siglec9 ALPHAscreen SOP 20170721
- Design: scale not given: direction of the effect not stated beside the values
- assay.conditions: 10 µM
value.kind: Percent Effect (%)
# output: bare number, implied unit %

Query block: Given the molecule `Cc1ccsc1-c1nnc(C2CCN(Cc3ccc(F)cc3)CC2)o1` , what is its reported Percent Effect?
Result block: 4.24

Query block: Please answer likewise for O=C(CCOc1cccc(F)c1)N1CCCC(n2cncn2)C1 (stereo unspecified)
Result block: 3.23

Query block: Please answer likewise for Cc1ccn(-c2ccc(C(=O)N3CCCC(n4ccnc4)C3)cc2)n1 (stereo unspecified)
Result block: -1.83

Query block: Please answer likewise for `CN(Cc1ccc(C#N)cc1)Cc1noc(C(C)(C)C)n1`
Result block: 0.255

Query block: Please answer likewise for CC1CN(CC(=O)NC(=O)NCc2ccccc2)CCO1 (stereo unspecified)
Result block: -9.53

Query block: Please answer likewise for `O=C1[C@H]2CC[C@H](CN(C3CSCCSC3)C2)N1Cc1cscn1`
Result block: 4.75

Query block: Please answer likewise for `CCOc1ncccc1C(=O)N(C)Cc1ncc(C)c(OC)c1C`
Result block: -3.9

Query block: Please answer likewise for Cc1ccc(CN2CCC3(CC2)CC(c2cccnc2)CO3)s1 (stereo unspecified)
Result block: -3.96

Query block: Please answer likewise for `COc1ncccc1CN1CCn2c(Cn3cncn3)cnc2C1`
Result block: -13.2

Query block: Please answer likewise for CC(C)C(Sc1nnc(C2CC2)n1C1CC1)C(=O)NCc1cccnc1 (stereo unspecified)
Result block: 5.12

Query block: Please answer likewise for `CNC(=O)[C@H]1CCS(=O)(=O)[C@@H]2CN(Cc3ccc(OC)cc3)C[C@H]12`
Result block: 2.93

This collection of values is drawn from ChEMBL document CHEMBL3988442.
